systemName: hGLP-1R (Homo sapiens)
Sequence (P43220 24-463): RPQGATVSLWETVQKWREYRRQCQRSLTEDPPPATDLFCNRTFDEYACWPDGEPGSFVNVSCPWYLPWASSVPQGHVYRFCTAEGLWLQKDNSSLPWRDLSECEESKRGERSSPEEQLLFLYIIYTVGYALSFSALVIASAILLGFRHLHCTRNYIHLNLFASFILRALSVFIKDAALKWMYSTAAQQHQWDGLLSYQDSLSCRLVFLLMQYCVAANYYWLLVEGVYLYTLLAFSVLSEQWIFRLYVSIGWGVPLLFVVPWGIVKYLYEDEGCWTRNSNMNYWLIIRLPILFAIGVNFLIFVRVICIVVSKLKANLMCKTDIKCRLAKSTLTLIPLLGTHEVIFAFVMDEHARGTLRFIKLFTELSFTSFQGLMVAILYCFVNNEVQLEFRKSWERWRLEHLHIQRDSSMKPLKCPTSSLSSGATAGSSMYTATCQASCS
assayComment: Functional cAMP activity in the presence of 1% HSA
Assay type: cell-based
conditionSummary: read-out: cAMP Rel EC50, hGLP-1R
pEC50: −log10 of the molar value. Starred links: 1 amine or outer side, 2 acyl side, 3 side chain; linkers in the order of their positions; H or OH if unused. Non-standard residues stand in square brackets, D forms with d. Groups on a side chain read outwards from the residue. No end group written: not given here. *: point of attachment. C18 diacid = O=C(O)CCCCCCCCCCCCCCCCC(=O)*; αMePhe(2-F) = C[C@](N)(Cc1ccccc1F)C(=O)O; γGlu = O=C(O)[C@H](CCC(=O)[*:2])N[*:1]; αMe4Pal = C[C@](N)(Cc1ccncc1)C(=O)O; αMeY = C[C@](N)(Cc1ccc(O)cc1)C(=O)O; 4Pal = N[C@@H](Cc1ccncc1)C(=O)O; αMeL = CC(C)C[C@](C)(N)C(=O)O; αMeS = C[C@](N)(CO)C(=O)O; Orn = NCCC[C@H](N)C(=O)O; AEEA = NCCOCCOCC(=O)O; Aib = CC(C)(N)C(=O)O
measurementName: pEC50

# substance, measurementName, reportedValue
rows = [
    ("Y[Aib]QGT[αMePhe(2-F)]TSD[4Pal][αMeS]I[αMeL]LD[Orn]K([AEEA-γGlu-C18 diacid])AA[Aib]EFI[dE][αMeY]LIEGGPSSGAPPPSGE-NH2 [Example 701]", "pEC50", 7.60),
    ("H-Y[Aib]QGT[αMePhe(2-F)]TSD[4Pal][αMeS]I[αMeL]LD[Orn]K([AEEA-γGlu-C18 diacid])AQ[αMe4Pal]EFI[dE][αMeY]LVEGGPSSGEPPPSGSE-NH2 [Example 752]", "pEC50", 7.36),
    ("H-Y[Aib]QGTFTSD[4Pal]S[Orn][αMeL]LDKK([γGlu-γGlu-γGlu-C18 diacid])AQ[αMe4Pal]AFIEYLIE[Aib]GPSSGAPPPSGS-NH2 [Example 866]", "pEC50", 6.32),
    ("H-Y[Aib]QGTFTSD[4Pal]SQ[αMeL]LDKK([AEEA-γGlu-C18 diacid])AQ[αMe4Pal]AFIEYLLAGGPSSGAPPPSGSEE-NH2 [Example 1037]", "pEC50", 6.20),
    ("H-Y[Aib]QGTFTSD[4Pal]SQ[αMeL]LDKK([γGlu-γGlu-C18 diacid])AQ[αMe4Pal]AFIEYLIE[Aib]GPSSGAPPPSGSEE-NH2 [Example 899]", "pEC50", 6.23),
]
